- subject-of-test: 5-HT2C receptor (Homo sapiens, UniProt P28335)
- Sequence (P28335 33-458): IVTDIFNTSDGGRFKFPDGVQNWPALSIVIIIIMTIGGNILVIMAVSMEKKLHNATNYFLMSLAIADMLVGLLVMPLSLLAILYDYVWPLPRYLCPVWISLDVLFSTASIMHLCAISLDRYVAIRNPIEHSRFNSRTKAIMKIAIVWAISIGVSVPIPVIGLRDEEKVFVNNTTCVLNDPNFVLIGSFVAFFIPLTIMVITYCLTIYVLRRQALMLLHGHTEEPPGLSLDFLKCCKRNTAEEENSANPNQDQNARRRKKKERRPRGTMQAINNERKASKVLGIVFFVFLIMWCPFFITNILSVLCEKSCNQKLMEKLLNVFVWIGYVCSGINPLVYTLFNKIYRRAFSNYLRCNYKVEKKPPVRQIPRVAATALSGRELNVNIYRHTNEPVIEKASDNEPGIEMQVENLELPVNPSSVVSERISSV
- Sequence (P32121 whole entry partner): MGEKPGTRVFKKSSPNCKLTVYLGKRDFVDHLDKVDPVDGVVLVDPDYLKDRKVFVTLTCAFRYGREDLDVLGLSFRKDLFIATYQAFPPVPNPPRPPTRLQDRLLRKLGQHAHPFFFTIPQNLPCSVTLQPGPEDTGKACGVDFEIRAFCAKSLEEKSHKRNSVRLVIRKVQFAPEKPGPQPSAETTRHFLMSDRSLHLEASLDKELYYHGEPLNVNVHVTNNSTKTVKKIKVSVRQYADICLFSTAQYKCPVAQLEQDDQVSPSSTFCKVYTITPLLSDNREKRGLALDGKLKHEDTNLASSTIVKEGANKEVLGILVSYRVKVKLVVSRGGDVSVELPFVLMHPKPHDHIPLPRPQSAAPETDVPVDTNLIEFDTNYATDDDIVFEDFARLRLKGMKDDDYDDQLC
- experimental-details: Human 5-HT2C functional assay (beta-arrestin2 recruitment, U2OS_HTR2C_β-Arrestin cells)
- test-conditions: potency in functional assay; beta-arrestin2 recruitment, 1.5 h incubation
pEC50: −log10 of the molar value.
experimental-endpoint: pEC50

CC1CNCc2cccc3c2N1CCC3CF (stereo not drawn) [Example 7] has a reported pEC50 of 6.70 to 7.70

CCOCC1CCN2c3c(cccc31)CNCC2C (stereo not drawn) [Example 8] has a reported pEC50 of 6.00 to 6.70

Quick note, pEC50 for CC1CNCc2cccc3c2N1CCC3C(F)(F)F (single isomer, unassigned) [Isomer 4.D] landed at 6.00 to 6.70

Note to self: pEC50 recorded for CC1CNCc2cccc3c2N1CCC3C(F)F (stereo not drawn) [Example 5] was 6.70 to 7.70

Sample CC1CNCc2cccc3c2N1CCC3C(F)(F)F (single isomer, unassigned) [Isomer 4.A] ; pEC50 observed: > 7.70

Recorded pEC50 (compound CC1CNCc2cccc3c2N1CCC3C(F)(F)F (single isomer, unassigned) [Isomer 4.C] ): > 7.70

Looking up CC1CNCc2cccc3c2N1CCC3C(F)(F)F (single isomer, unassigned) [Isomer 4.B] , I see its pEC50 listed as 6.70 to 7.70

Entry COCC1CCN2c3c(cccc31)CNCC2C (stereo not drawn) [Example 9] ; pEC50 = 6.00 to 6.70

Entry under test: CC1CNCc2cccc3c2N1CCC3C(F)F (single isomer, unassigned) [Isomer 5.B] . Its pEC50 was 6.70 to 7.70
